# tgt: SHP2-C SH2
# test description: SH2 binding enrichment of the phosphorylated peptide, bacterial display (enrichment ratio); higher = better substrate or ligand; peptides without Tyr show the background
value kind: SH2 binding enrichment

// below: answered sequences
AGQEDCDRLRP [CDC42_Y64_Y64C] | 0.945
DDLTDYLMKIL [ACTA1_Y190_R185D] | 1.26
EEGESYVCSSD [DCX_Y125] | 0.839
SIRFNYLLDVL [FGFR4_Y237_YF] | 1.3

P. RALCHYYKLNI [ETV6_Y401_R399C]
Q. KYVKMYDNHQL [MYO9A_Y203]
Inquiry: Of P and Q , whose reported SH2 binding enrichment is numerically smaller? Use the label to indicate which entry you chose.
Reply text: Q
(Q: 0.76, P: 1.23)

I. KILAKYLLETS [NAMPT_Y175]
II. TTPGPHRSIFF [MPG_Y71_Y71H_YF]
Inquiry: Pick one: I or II . Which has the bigger SH2 binding enrichment number? In your reply, give the label of the chosen option.
Reply text: II

1. NNIDFYKNTTN [FGFR2_Y657_K659N_YF]
2. TDKLFYIYTSG [SLC27A4_Y243]
3. LNPLVYTLRNA [OR4C12_Y285_V283L]
Inquiry: Order each entry by recorded SH2 binding enrichment, climbing from the minimum. Please express your ranking as an ordered list of the labels.
Reply text: 1, 3, 2

---

# Tested on: c-Abl (mouse)
# test description: phosphorylation enrichment, bacterial display (enrichment ratio); higher = better substrate or ligand; peptides without Tyr show the background
value kind: phosphorylation enrichment
Number only, please.

TRDVNYGWIIR [MT-CYB_Y75] | 0.595
ARSMEYLAEQK [MST1R_Y1198] | 0.655
ASLEAYCKHKF [RXRA_Y403_YF] | 0.687

So for GDFFRYLAEVA [YWHAG_Y133_YF] , the logged phosphorylation enrichment turned out to be 0.78

---

# tgt: Fes (UniProt P07332)
# Sequence (P07332 whole entry, looked up): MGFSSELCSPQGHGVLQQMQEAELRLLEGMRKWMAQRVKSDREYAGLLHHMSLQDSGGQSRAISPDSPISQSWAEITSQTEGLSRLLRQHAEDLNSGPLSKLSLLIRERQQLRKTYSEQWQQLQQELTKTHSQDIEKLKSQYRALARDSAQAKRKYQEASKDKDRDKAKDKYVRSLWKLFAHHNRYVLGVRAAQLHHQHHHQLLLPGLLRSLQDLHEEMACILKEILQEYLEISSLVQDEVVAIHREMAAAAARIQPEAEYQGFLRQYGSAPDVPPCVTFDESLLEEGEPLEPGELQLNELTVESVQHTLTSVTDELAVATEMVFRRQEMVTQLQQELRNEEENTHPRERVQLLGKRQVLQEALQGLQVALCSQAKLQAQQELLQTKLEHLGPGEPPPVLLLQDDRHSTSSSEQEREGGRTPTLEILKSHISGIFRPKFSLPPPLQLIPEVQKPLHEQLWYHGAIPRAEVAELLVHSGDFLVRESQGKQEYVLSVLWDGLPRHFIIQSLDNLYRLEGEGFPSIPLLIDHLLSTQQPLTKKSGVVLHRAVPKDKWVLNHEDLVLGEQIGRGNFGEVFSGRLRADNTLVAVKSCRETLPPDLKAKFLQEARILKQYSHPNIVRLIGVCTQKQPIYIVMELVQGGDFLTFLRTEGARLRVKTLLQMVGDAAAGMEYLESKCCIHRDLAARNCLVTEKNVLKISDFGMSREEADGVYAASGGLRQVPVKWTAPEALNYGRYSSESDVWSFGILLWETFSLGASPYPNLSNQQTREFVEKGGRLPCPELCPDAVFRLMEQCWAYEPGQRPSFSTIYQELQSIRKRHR
# test description: phosphorylation enrichment, bacterial display (enrichment ratio); higher = better substrate or ligand; peptides without Tyr show the background
// reported phosphorylation enrichment per item
Output: the number by itself.

STEAIYWRFSK [SH3PXD2B_Y42_R43W_YF] | 1.51
DGTIVCTGLET [USH2A_Y4487_Y4487C] | 1.12
QWRTKYETDTI [MYH7_Y1375_A1379T] | 1.49

The measured phosphorylation enrichment associated with WVYNHYRCIIW [BRCA2_Y2624_W2626C] reads 1.63

Consider THEVRYISAGQ [SLCO4A1_Y77_V78I] . Its measured phosphorylation enrichment is 0.705

phosphorylation enrichment in this record for KRLAVYQAGAR [APOE_Y180] : 0.504

---

// values below are reported phosphorylation enrichment
# tgt: FGFR1 (UniProt P11362)
# Sequence (P11362 whole entry, looked up): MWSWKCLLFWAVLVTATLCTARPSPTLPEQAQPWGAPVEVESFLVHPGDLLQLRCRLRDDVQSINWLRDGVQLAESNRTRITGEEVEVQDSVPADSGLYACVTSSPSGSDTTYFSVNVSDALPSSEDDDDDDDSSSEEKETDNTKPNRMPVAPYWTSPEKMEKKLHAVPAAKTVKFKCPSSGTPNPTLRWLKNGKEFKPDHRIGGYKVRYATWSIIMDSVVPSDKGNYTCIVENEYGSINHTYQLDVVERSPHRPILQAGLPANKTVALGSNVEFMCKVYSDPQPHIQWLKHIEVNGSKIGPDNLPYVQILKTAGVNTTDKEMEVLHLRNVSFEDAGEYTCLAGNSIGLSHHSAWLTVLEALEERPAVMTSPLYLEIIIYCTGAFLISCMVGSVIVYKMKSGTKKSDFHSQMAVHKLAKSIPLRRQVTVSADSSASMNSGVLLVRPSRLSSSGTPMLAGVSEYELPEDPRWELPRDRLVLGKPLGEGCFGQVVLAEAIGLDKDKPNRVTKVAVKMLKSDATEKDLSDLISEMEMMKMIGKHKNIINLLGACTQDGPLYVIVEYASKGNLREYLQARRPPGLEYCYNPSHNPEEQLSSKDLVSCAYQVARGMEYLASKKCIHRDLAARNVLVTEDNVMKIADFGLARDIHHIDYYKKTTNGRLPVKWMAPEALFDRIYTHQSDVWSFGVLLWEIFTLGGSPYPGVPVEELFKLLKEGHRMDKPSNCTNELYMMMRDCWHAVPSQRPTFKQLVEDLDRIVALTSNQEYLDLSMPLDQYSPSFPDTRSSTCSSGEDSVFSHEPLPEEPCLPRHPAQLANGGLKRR
# test description: phosphorylation enrichment, bacterial display (enrichment ratio); higher = better substrate or ligand; peptides without Tyr show the background
Simply state the number, no unit and no words.

Study these solved cases before continuing.
ATHSGYRLNDY [CLDN14_Y233] | 0.503
AMGAVYQAAAL [HYOU1_Y421] | 0.58
LGGSPYPGVPV [FGFR1_Y701] | 0.514
GVASDYKCVDP [VPS13B_Y1991_I1994V] | 0.533

The value of phosphorylation enrichment measured for the sequence QMVDMYASSFM [AVPR2_Y124_G122D_YF] turned out to be 0.779

The recorded phosphorylation enrichment for GEIQEYGAPLD [ABCC1_Y1508_S1512L] is 0.598

QLQTTYPSSDN [MAX_Y115_N114T] yielded phosphorylation enrichment of 0.433

Query RFVTRSIFNRE [HLA-DQB1_Y62_Y62S_YF] yields phosphorylation enrichment of 0.472

Reported phosphorylation enrichment ( IVRSLYEDVED [VHL_Y185_L188V] ) = 0.502

phosphorylation enrichment for QPGDICHQTWA [GBA_Y244_Y244C] is 0.507

Reported phosphorylation enrichment ( KSVSQYLEMDK [CAGE1_Y438] ) = 0.46

Item: DDDPEYRKFLE [UPF3B_Y160] | phosphorylation enrichment: 0.669

Value of phosphorylation enrichment reported for the sequence FTGDIYSSSNL [LZTR1_Y141_N143S_YF] is 0.494

Query KHMADYPDYKY [SOX11_Y113] yields phosphorylation enrichment of 0.453

Measured phosphorylation enrichment of ITVPAYFNDLQ [HSPA9_Y196_S200L] : 0.555

The value of phosphorylation enrichment measured for the sequence RRIHSYRGHLC [VHL_Y112_W117C] turned out to be 0.503

phosphorylation enrichment reported for this sequence LDLPGYCLLRE [CCDC116_Y291_P293L] : 1.03

---

# Test system: Fer (mouse)
# test description: phosphorylation enrichment, bacterial display (enrichment ratio); higher = better substrate or ligand; peptides without Tyr show the background
value kind: phosphorylation enrichment
Respond with the number and no other words.

The examples below pair each entry with its known result.
TIMTDYNPNYC [ALK_Y1092] | 0.548
TGEKPYECVQC [ZNF24_Y335] | 1.87
SERNNYSRVAN [CWC22_Y797] | 0.422
QDIMAYRGREV [BCL6_Y157] | 0.616
VDYQPYRKHKY [TEX37_Y28] | 0.425

The reported phosphorylation enrichment of the sequence ALEQKYWALGQ [MAP1A_Y1555] was 0.436

phosphorylation enrichment in this record for ETKTPYTVILI [SBDS_Y128_R126T] : 1.06

Data point: IFCIQYNIRAF [MYH4_Y820] ; phosphorylation enrichment = 0.596

---

# tgt: c-Src SH2
# test description: SH2 binding enrichment of the phosphorylated peptide, bacterial display (enrichment ratio); higher = better substrate or ligand; peptides without Tyr show the background
value kind: SH2 binding enrichment

Guide cases for SH2 binding enrichment, answers given:
ALCHFYKLNII [ETV6_Y402_R399C_YF] | 0.915
CETMEYLESKQ [BTK_Y511_A508T] | 0.427
IPGMEYLVSII [TNC_Y1775_V1773M] | 0.641

P. GTHCHYKAPIV [FZD9_Y569_T573I]
Q. WSFNLYDINKD [KCNIP3_Y174_A170S]
Inquiry: Select one. Lower SH2 binding enrichment: P or Q Mark your selection by writing its label.
Reply text: Q
(Q: 0.469, P: 0.953)

---

# tgt: FGFR3 (UniProt P22607)
# Sequence (P22607 whole entry, looked up): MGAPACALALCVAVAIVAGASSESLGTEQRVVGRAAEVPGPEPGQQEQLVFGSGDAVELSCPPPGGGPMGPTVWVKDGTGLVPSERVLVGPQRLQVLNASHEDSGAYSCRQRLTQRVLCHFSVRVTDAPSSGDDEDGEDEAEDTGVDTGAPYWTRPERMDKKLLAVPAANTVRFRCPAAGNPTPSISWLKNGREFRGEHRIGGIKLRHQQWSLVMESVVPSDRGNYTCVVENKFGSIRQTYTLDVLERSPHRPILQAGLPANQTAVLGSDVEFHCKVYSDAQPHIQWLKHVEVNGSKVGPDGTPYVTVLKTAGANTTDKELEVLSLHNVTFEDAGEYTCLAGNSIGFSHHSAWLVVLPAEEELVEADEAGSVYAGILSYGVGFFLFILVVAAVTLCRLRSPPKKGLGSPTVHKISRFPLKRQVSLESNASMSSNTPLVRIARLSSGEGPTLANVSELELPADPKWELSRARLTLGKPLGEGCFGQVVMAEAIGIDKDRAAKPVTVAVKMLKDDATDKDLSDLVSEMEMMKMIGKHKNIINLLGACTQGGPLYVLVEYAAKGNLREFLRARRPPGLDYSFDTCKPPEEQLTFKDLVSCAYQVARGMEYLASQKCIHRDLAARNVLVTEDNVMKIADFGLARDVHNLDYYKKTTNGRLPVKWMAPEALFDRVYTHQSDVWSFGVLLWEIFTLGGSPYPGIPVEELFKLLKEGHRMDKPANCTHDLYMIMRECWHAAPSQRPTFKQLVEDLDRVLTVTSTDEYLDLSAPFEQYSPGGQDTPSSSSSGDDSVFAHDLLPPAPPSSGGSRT
# test description: phosphorylation enrichment, bacterial display (enrichment ratio); higher = better substrate or ligand; peptides without Tyr show the background
value kind: phosphorylation enrichment
Provide a numeric answer; units are not to be included.

Observe how each entry below is paired with its result.
FSGKAYADEEQ [CRIM1_Y826_R831Q] | 0.81
IYRASYYRRGD [LTK_Y676] | 0.555
QRKPSYNQLAS [BRCA2_Y71] | 0.642
KNKNRSKNILP [PTPN11_Y279_Y279S] | 0.627
LSSISYVGCSL [ADGRD1_Y571] | 0.838

// LIYTNYEVGKD [GSTP1_Y112_A114V] : phosphorylation enrichment value = 5.54

phosphorylation enrichment recorded for this sequence, FEKNVYVDKNL [PTCHD3_Y688] , is 0.461

Entry LERFIYNREEF [HLA-DPB1_Y59_F64Y_YF] , phosphorylation enrichment reported as 1.79

Query INMKKYCKKDF [NTN1_Y490_YF] yields phosphorylation enrichment of 0.757

Summary for this sequence, KVGNEYITKGQ [MYH7_Y410_V411I] : phosphorylation enrichment is 0.443

The recorded phosphorylation enrichment for entry RSHRSYSCQVM [IGLL1_Y192_R189H] equals 0.671

Lab note: IALNSCHSRNC [IFNGR1_Y397_Y397C] gave phosphorylation enrichment of 0.371

Lookup result for KQLFAYKMLMA [TMC2_Y209_YF] ; measured phosphorylation enrichment: 0.677

Field phosphorylation enrichment (entry FPDFVYKRIKA [DPYSL2_Y479] ) reads 0.543

---

Parameter: phosphorylation enrichment. Scope: all listed entries.
# tgt: MERTK (UniProt Q12866)
# Sequence (Q12866 whole entry, looked up): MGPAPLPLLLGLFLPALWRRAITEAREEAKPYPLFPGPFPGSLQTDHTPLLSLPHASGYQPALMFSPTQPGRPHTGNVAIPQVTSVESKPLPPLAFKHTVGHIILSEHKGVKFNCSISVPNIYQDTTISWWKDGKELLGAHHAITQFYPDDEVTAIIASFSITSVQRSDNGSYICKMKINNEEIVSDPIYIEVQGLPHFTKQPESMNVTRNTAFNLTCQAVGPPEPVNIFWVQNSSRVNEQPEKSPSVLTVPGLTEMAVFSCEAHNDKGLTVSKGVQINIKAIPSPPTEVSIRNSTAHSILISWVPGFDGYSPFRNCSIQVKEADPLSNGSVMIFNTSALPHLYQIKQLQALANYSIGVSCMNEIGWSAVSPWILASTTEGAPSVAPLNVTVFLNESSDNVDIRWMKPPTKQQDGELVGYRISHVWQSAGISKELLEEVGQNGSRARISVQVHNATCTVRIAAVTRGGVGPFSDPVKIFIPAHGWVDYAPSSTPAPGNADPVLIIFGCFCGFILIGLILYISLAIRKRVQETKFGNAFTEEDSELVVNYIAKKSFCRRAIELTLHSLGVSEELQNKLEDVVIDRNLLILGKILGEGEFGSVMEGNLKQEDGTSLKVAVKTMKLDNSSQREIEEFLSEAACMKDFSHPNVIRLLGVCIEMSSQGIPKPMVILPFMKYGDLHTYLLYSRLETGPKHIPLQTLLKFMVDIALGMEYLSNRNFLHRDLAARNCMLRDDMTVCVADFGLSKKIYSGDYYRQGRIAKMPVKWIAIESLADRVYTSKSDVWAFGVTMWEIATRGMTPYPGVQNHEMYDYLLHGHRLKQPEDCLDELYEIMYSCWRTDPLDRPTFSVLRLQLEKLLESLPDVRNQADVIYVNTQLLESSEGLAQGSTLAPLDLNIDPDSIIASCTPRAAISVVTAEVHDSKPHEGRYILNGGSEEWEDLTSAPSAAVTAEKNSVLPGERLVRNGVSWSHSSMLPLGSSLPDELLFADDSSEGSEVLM
# test description: phosphorylation enrichment, bacterial display (enrichment ratio); higher = better substrate or ligand; peptides without Tyr show the background
Lab note: record the figure alone, no unit after it.

Example cases with answers are listed next.
LHQSTYQCYDV [SLC7A14_Y693_R695C] | 1.06
LKRCQYVTEKV [ALDOA_Y204] | 0.672
GKMSQYLESMQ [CYB5R3_Y130] | 0.435
TTPGPHRSIFF [MPG_Y71_Y71H_YF] | 0.376
RPQDGFRIVQH [PTPRT_Y1329_Y1329F] | 0.52

The reported phosphorylation enrichment of the sequence CSSPTYRDCLQ [LARGE2_Y682_R677C] was 0.37

In plain terms, DDPRRYQKYGY [OAS1_Y362] has a documented phosphorylation enrichment of 0.368
